Reference source for all entries: patent US11352365B2

The entries below are paired with their reported pEC50.
Target: MOR (Homo sapiens)
Sequence (P35372 whole entry): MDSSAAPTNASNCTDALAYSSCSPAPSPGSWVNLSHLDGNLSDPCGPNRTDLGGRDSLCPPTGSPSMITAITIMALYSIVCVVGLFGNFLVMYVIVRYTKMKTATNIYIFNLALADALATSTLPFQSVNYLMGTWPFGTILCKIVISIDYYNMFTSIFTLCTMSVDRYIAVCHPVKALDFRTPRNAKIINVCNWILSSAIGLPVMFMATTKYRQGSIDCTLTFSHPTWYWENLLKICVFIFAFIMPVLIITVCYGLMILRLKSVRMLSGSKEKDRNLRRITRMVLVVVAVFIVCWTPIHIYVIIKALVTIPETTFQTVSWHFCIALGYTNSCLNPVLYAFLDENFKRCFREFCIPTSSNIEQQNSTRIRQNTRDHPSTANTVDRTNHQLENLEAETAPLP
Assay: cell-based
Assay type: cell-based
Parameters: host or cells: U2OS-β-arrestin2-EFC-hMOR
Details: Table 3; read-out: MOR Mediated B-arrestin Recruitment
Method: The PathHunter β-arrestin assay. The assay was performed according to the manufacturer's protocol (DiscoveRx) and as described previously. Briefly, 5000 U2OS-β-arrestin2-EFC-hMOR cells were plated in 384-well white plates with Opti-MEM media (Invitrogen) containing 1% FBS±pertussis toxin (100 ng/ml) overnight. […] Luminescence values were determined by using a Synergy HT luminometer (BioTek).
pEC50: −log10 of the molar value.

Here's what some known entries look like.
C[C@@H]1[C@@H]2CCC[C@@]1(c1cccc(O)c1)CCN2CCc1ccccc1 (single isomer, unassigned) [(−)-48] | < 4.60
C[C@H]1[C@H]2CCC[C@@]1(c1cccc(O)c1)CCN2CCc1ccccc1 [(+)-48] | 8.11

// Input: `Oc1cccc2c1O[C@H]1CN(CCc3ccccc3)[C@H]3CCC[C@@]21C3` . Output its pEC50 only.
< 4.60
